Tested on: L1210 leukemia ip in BDF1 mice, survival T/C
Assay: NCI In Vivo Anticancer Drug Screen. Data for tumor model L1210 Leukemia (intraperitoneal) in B6D2F1 (BDF1) mice
Conditions: endpoint: mean survival time; dose: 200.0 mg/kg/injection; schedule: Q01DX009 (ip); vehicle: Klucel (hydroxypropylcellulose) (HPC); higher = longer survival
Toxic doses and inconclusive results are not listed.
Give measured T/C for each item. Keep answers brief.

Query: I am curious: what T/C value has been reported for `O=C(Cc1ccccc1)Nc1cccc(Cl)c1` ?
Response: 86 % of control

Query: Proceed to CN(C)C(=O)C1Cc2ccccc2CC1C(=O)N(C)C (configuration not stated)
Response: 101 % of control

Query: Proceed to OCC12COC(c3ccccc3)N1C(c1ccccc1)OC2 (configuration not stated)
Response: 102 % of control

Query: Proceed to `CN(C)c1ccc(C=O)cc1[N+](=O)[O-]`
Response: 100 % of control

Query: Proceed to `COc1cc([N+](=O)[O-])ccc1NC(=O)N(Cc1ccccc1)c1ccccc1`
Response: 93 % of control

Query: Proceed to `Cc1ccc(C)c(NC(=O)N(Cc2ccccc2)Cc2ccccc2)c1`
Response: 91 % of control

Query: Proceed to `CCOC(=O)/C(C#N)=C\C=C\c1ccccc1`
Response: 98 % of control

Query: Proceed to `O=C(/C=C/c1ccccc1)Nc1ccccc1C(F)(F)F`
Response: 104 % of control

Query: Proceed to COC1(c2ccccc2)CN(Cc2ccccc2)CCO1 (configuration not stated)
Response: 98 % of control

Query: Proceed to `O=[N+]([O-])c1cc([N+](=O)[O-])c(/C=C/c2ccccc2)c([N+](=O)[O-])c1/C=C/c1ccccc1`
Response: 98 % of control

Query: Proceed to `O=C1CN(CN2CCCCC2)C(=O)CN1CN1CCCCC1`
Response: 95 % of control

Query: Proceed to `CCCCCCCCCCCC1=NCCN1`
Response: 96 % of control

====

Tested on: L1210 leukemia ip in BDF1 mice, survival T/C
Assay: NCI In Vivo Anticancer Drug Screen. Data for tumor model L1210 Leukemia (intraperitoneal) in B6D2F1 (BDF1) mice
Conditions: endpoint: mean survival time; dose: 100.0 mg/kg/injection; schedule: Q01DX009 (ip); vehicle: Klucel (hydroxypropylcellulose) (HPC); higher = longer survival
Inconclusive results and toxic doses are left out.
Give measured T/C for each item. Keep answers brief.

Query: I am curious: what T/C value has been reported for `CCCCCCC(=O)CC(C)C` ?
Response: 101 % of control

Query: Proceed to `Cc1ccc(S(=O)(=O)N/N=C\c2cccc([N+](=O)[O-])c2)cc1`
Response: 103 % of control

Query: Proceed to CCNC(c1ccccc1)C(O)c1ccccc1 (stereo unspecified)
Response: 104 % of control

Query: Proceed to `COc1ccc2[nH]c3c(c2c1)CSc1ccccc1-3`
Response: 110 % of control

Query: Proceed to `Cc1cccc(NC(=O)c2c(Br)c(Br)c(Br)c(Br)c2C(=O)O)c1C`
Response: 100 % of control

Query: Proceed to `COc1cc(CNC(=O)NCCCl)cc(OC)c1OC`
Response: 94 % of control

Query: Proceed to `OC/C(=C/c1ccccc1)c1ccccc1`
Response: 91 % of control

Query: Proceed to `C1=C(c2ccccc2)CCC1`
Response: 97 % of control

Query: Proceed to `O=[N+]([O-])c1cccc(S(=O)(=O)N2CCN(S(=O)(=O)c3cccc([N+](=O)[O-])c3)C2)c1`
Response: 95 % of control

Query: Proceed to NC(N)=NCCCC(NC(=O)OCc1ccccc1)C(=O)Nc1ccc2ccccc2c1 (stereo unspecified)
Response: 102 % of control

Query: Proceed to CCC(c1ccc2cc(OC)ccc2c1)C(C(=O)O)C(=O)O (stereo unspecified)
Response: 107 % of control
